Target: UniProt:O60674
Sequence (O60674 828-1132): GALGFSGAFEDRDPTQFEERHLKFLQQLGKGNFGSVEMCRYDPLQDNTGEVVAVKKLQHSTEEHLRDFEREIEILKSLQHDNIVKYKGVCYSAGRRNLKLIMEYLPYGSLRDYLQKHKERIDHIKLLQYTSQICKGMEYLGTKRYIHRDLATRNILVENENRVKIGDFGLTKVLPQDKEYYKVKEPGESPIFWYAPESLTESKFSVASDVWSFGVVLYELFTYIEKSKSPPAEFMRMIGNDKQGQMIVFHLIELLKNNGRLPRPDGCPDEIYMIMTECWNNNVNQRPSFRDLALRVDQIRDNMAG
Assay: JAK2/JAK1 selectivity, Assay A at 1 mM ATP
Format: biochemical
Conditions: IC50 ratio
Recorded JAK2/ JAK1 by entry

Worked examples, 2 compounds total:
C[C@@H](O)c1nc2cnc3ccsc3c2n1[C@H]1CC[C@H](CC#N)OC1 [Example 1] ... >10
C[C@@H](CO)NCc1cc(OC2CCN([C@H]3C[C@](CC#N)(n4cc(-c5ncnc6[nH]ccc56)cn4)C3)CC2)nc(C(F)(F)F)c1 [Example 23] ... >10

// moving on: another record for JAK2/ JAK1
Task item: What measured JAK2/ JAK1 goes with N#CCC(CN1CCN(C(=O)c2ccc(C#N)cc2F)CC1)n1cc(-c2ncnc3[nH]ccc23)cn1 (stereo not drawn) [Example 5] ?
Reply: >10

Origin of measurements: patent US12226418B2
